# system.name: 5-Lipoxygenase (5-LO) (Homo sapiens, UniProt P09917)
# Construct: Human polymorphonuclear leukocytes (neutrophils) were obtained from normal healthy volunteers by venipuncture; endogenous in cells; host or cells: human peripheral blood neutrophils (polymorphonuclear leukocytes) from healthy volunteers, intact cells
# Sequence (P09917 1-674): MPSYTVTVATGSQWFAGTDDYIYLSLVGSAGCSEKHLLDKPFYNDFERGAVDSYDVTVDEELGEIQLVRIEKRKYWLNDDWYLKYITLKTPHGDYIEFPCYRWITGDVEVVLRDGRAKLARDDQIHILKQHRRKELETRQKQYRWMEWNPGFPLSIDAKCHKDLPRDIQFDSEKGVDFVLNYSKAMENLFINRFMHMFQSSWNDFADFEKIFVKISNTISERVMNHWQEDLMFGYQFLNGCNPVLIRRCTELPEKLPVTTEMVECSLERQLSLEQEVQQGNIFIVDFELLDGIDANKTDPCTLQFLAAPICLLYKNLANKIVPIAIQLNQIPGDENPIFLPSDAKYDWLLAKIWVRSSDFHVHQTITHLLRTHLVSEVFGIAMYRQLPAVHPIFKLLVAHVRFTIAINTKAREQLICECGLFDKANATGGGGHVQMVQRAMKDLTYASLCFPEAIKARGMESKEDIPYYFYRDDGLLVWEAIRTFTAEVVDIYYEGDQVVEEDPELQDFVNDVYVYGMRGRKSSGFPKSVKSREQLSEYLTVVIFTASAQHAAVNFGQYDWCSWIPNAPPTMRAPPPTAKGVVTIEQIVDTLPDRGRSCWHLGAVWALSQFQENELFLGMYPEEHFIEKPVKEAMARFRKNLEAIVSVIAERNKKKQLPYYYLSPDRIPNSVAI
# assay.name: 5-Lipoxygenase Assay with Human Neutrophils (A23187-stimulated 5-HETE and LTB4 production)
# Type: cell-based
# condition.summary: dose 15 μM, [14C] arachidonic acid 9 μM, A23187 1 μM, read-out: 5-LO inhibition, % inhibition 5-HETE
measured.metric: inhibition at 15 µM (%)

Take a look at these entries with their results.
molecule: COC(=O)CCCC(C)(CC(C)(C)c1cc(OC)cc(OC)c1)c1cc(OC)cc(OC)c1 (stereo not drawn)
inhibition at 15 µM [%]: 98
--
molecule: COc1cc(OC)cc(C(C)(C)CC(C)(CCCC(=O)NO)c2cc(OC)cc(OC)c2)c1 (stereo not drawn)
inhibition at 15 µM [%]: 99
--
molecule: COc1cc(OC)cc(C(C)(C)CC(C)(CCCC=O)c2cc(OC)cc(OC)c2)c1 (stereo not drawn)
inhibition at 15 µM [%]: 97
--
molecule: COc1cc(OC)cc(C(C)(C)CC(C)(CCCCO)c2cc(OC)cc(OC)c2)c1 (stereo not drawn)
inhibition at 15 µM [%]: 99

(I) COc1cc(OC)cc(C(C)(C)CC(C)(CCCCOC(C)=O)c2cc(OC)cc(OC)c2)c1 (stereo not drawn)
(II) COc1cc(OC)cc(C(C)(C)CC(C)(CCCC(=O)O)c2cc(OC)cc(OC)c2)c1 (stereo not drawn)
Would you kindly point out which of I and II has the smaller inhibition at 15 µM figure? Indicate your choice by writing its label.
II

###

# system.name: 5-Lipoxygenase (5-LO) (Homo sapiens, UniProt P09917)
# Construct: Human polymorphonuclear leukocytes (neutrophils) were obtained from normal healthy volunteers by venipuncture; endogenous in cells; host or cells: human peripheral blood neutrophils (polymorphonuclear leukocytes) from healthy volunteers, intact cells
# assay.name: 5-Lipoxygenase Assay with Human Neutrophils (A23187-stimulated 5-HETE and LTB4 production)
# Type: cell-based
# condition.summary: dose 15 μM, [14C] arachidonic acid 9 μM, A23187 1 μM, read-out: 5-LO inhibition, % inhibition LTB4
measured.metric: inhibition at 15 µM (%)

Solved cases (4 shown):
compound: COc1cc(OC)cc(C(C)(C)CC(C)(CCCCO)c2cc(OC)cc(OC)c2)c1 (stereo not drawn) [Formula 41]
inhibition at 15 µM (%): 97
//
compound: COc1cc(OC)cc(C(C)(C)CC(C)(CCCCOC(C)=O)c2cc(OC)cc(OC)c2)c1 (stereo not drawn) [Formula 42]
inhibition at 15 µM (%): 100
//
compound: COC(=O)CCCC(C)(CC(C)(C)c1cc(OC)cc(OC)c1)c1cc(OC)cc(OC)c1 (stereo not drawn) [Formula 44]
inhibition at 15 µM (%): 100
//
compound: COc1cc(OC)cc(C(C)(C)CC(C)(CCCC=O)c2cc(OC)cc(OC)c2)c1 (stereo not drawn) [Formula 43]
inhibition at 15 µM (%): 97

(I) COc1cc(OC)cc(C(C)(C)CC(C)(CCCC(=O)NO)c2cc(OC)cc(OC)c2)c1 (stereo not drawn) [Formula 46]
(II) COc1cc(OC)cc(C(C)(C)CC(C)(CCCC(=O)O)c2cc(OC)cc(OC)c2)c1 (stereo not drawn) [Formula 45]
Record comparison, field inhibition at 15 µM: mark the lower of I and II . Label of pick, please.
II

Source: patent US5563292A
